Target: T1, soluble human FcRn (shFcRn) (human, UniProt P55899 24-297; P61769 21-119, biotinylated with Sulfo-NHS-LC-Biotin in the ELISA; amine-coupled to a CM5 chip in SPR)
T1 construct: also called biotinylated shFcRn
T1 sequence (P55899 24-297 limits assumed, chain 1 of 2): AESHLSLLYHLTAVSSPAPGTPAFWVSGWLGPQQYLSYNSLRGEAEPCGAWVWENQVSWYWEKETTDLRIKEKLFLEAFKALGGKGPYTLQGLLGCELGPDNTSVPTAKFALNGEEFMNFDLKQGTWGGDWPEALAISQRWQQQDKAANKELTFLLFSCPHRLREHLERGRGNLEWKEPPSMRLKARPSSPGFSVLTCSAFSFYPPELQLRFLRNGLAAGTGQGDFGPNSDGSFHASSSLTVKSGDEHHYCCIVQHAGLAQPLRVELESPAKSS
T1 sequence (P61769 21-119 limits assumed, chain 2 of 2): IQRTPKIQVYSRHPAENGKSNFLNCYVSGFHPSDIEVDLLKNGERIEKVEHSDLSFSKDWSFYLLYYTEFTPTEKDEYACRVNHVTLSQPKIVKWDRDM
Assay: SPR, pH 6
pKd: −log10 of the molar value. Positions of bridges follow the written chain, without caps; N, C: chain ends. Non-standard residues stand in square brackets, D forms with d. No end group written: not given here. Pen = CC(C)(S)[C@H](N)C(=O)O
Give true (1) when the value for pKd is at least 6. Give false (0) when it is less.

>>> category("RFXTGHFXXYPC (Pen3; X8 = 3(R)-amino-2-oxo-1-azepine acetic acid; NMeLeu9; disulfide; C-terminal amide) [Peptide No. 239]")
"true (1)"
>>> category("FVTGHFG[dP]WYPA-NH2 (N-terminus assumed; SMILES CC(C)[C@H](NC(=O)[C@@H](N)Cc1ccccc1)C(=O)N[C@H](C(=O)NCC(=O)N[C@@H](Cc1c[nH]cn1)C(=O)N[C@@H](Cc1ccccc1)C(=O)NCC(=O)N1CCC[C@@H]1C(=O)N[C@@H](Cc1c[nH]c2ccccc12)C(=O)N[C@@H](Cc1ccc(O)cc1)C(=O)N1CCC[C@H]1C(=O)N[C@@H](C)C(N)=O)[C@@H](C)O) [Peptide No. 211]")
"false (0)"
>>> category("QRFDTGHFGXLYPKNGP (D-Ala10; lactam bridge Asp4-Lys14 side chains; C-terminal amide) [Peptide No. 105]")
"false (0)"
>>> category("RFXTGAFGXXYPC (Pen3; Sar9; NMeLeu10; disulfide; C-terminal amide) [Peptide No. 266]")
"false (0)"
>>> category("QRFXTGHFGXLYPCNGP (Pen4; D-Ile10; disulfide; C-terminal amide) [Peptide No. 43]")
"false (0)"
>>> category("RFXTGHFGGXYPCNGP (Pen3; NMeLeu10; disulfide; C-terminal amide) [Peptide No. 146]")
"true (1)"
>>> category("QRFCTGHFXXLYPCNGP (D-Ala9; D-Ala10; disulfide; C-terminal amide) [Peptide No. 24]")
"false (0)"
>>> category("QRFXTGHFXGLYPCNGP (Pen4; D-Asp9; disulfide; C-terminal amide) [Peptide No. 47]")
"true (1)"
>>> category("QRFXTGHFXGLYPCNGP (Pen4; D-Ile9; disulfide; C-terminal amide) [Peptide No. 51]")
"false (0)"
>>> category("QRFXTGHFXXLYPCNGP (Pen4; D-Pro9; D-Pro10; disulfide; C-terminal amide) [Peptide No. 152]")
"false (0)"
>>> category("QRF[Pen]TGHF[dF]GPYPCNGP-NH2 (disulfide 4-14; N-terminus assumed; SMILES C[C@@H](O)[C@@H]1NC(=O)[C@@H](NC(=O)[C@H](Cc2ccccc2)NC(=O)[C@H](CCCNC(=N)N)NC(=O)[C@@H](N)CCC(N)=O)C(C)(C)SSC[C@@H](C(=O)N[C@@H](CC(N)=O)C(=O)NCC(=O)N2CCC[C@H]2C(N)=O)NC(=O)[C@@H]2CCCN2C(=O)[C@H](Cc2ccc(O)cc2)NC(=O)[C@@H]2CCCN2C(=O)CNC(=O)[C@@H](Cc2ccccc2)NC(=O)[C@H](Cc2ccccc2)NC(=O)[C@H](Cc2c[nH]cn2)NC(=O)CNC1=O) [Peptide No. 155]")
"false (0)"
